Reported Ki values are given for each entry in this list.
targetOrTestSystem: human 5-HT6 (h5-HT6) receptors (Homo sapiens)
Construct: purchased Receptor Biology, Inc. (Beltsville, Md.); host or cells: HEK-293 cells
Sequence (P50406 whole entry): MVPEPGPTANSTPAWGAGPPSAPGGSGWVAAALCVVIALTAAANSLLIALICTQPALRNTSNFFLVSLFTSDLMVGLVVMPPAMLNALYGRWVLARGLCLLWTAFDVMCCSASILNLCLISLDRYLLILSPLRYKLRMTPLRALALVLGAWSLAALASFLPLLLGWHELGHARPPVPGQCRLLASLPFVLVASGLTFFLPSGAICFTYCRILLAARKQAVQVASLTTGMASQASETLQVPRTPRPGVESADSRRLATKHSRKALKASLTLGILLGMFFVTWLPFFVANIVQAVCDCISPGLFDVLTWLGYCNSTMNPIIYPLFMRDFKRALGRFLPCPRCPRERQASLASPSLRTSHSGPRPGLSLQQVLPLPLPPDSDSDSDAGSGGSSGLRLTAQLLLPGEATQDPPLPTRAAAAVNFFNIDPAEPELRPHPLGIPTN
testProtocol: Competition radioligand binding, h5-HT6 ([3H]LSD)
measurementContext: membranes of HEK-293 cells, 1 hr RT
measurementType: Ki (nM)

# molecule, displayUnit, value
data = [
    ("CN1CCC[C@H]1CCN(Cc1ccc(Cl)cc1)Cc1ccc2c(c1)Cc1ccccc1-2", "nM", 38),
    ("COc1cc(CN(CC[C@@H]2CCCN2C)Cc2ccc(Cl)cc2)ccc1O", "nM", 280),
    ("CN1CCCC1CCN(Cc1ccccc1)Cc1c(Cl)cccc1Cl (centres unmarked)", "nM", 47),
    ("Cc1cc(CN(CC[C@@H]2CCCN2C)Cc2cccc(O)c2)cc(C)c1O", "nM", 2710),
    ("Cc1c(CN(CC[C@@H]2CCCN2C)Cc2ccc(Cl)cc2)sc2ccccc12", "nM", 310),
]

---

targetOrTestSystem: human 5-HT1a receptors (Homo sapiens, UniProt P08908)
Construct: expressed in transfected cells; host or cells: CHO K1 cells
Sequence (P08908 whole entry): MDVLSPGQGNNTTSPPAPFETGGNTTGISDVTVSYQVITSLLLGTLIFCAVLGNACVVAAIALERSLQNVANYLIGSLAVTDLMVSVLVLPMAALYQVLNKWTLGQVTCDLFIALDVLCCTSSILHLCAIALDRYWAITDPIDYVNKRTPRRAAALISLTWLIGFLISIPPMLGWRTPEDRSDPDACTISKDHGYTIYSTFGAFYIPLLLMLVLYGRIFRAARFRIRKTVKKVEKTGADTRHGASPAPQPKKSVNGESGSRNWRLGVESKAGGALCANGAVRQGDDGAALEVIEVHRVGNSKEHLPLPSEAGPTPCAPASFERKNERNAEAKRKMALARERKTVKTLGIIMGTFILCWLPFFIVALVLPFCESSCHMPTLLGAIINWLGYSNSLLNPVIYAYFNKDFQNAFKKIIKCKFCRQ
testProtocol: Competition radioligand binding, h5-HT1a ([3H]5-CT)
measurementContext: membranes of CHO K1 cells, 1 hr RT
measurementType: Ki

# compound, value
data = [
    ("CN1CCC[C@H]1CCN(Cc1ccc(Cl)cc1)Cc1ccc(O)cc1Cl", "3920 nM"),
    ("COc1cccc(CN(CC[C@@H]2CCCN2C)Cc2ccc(Cl)cc2)c1", "> 4000 nM"),
    ("CN1CCCC1CCN(Cc1ccc(Cl)cc1)Cc1ccc(Cl)cc1 (racemic)", "540 nM"),
    ("CN1CCC[C@H]1CCN(Cc1cccc(O)c1)Cc1cccc(O)c1", "3500 nM"),
    ("CN1CCCC1CCN(Cc1ccccc1)Cc1c(Cl)cccc1Cl (stereo not shown)", "> 4000 nM"),
    ("CN1CCCC1CCN(Cc1ccccc1)Cc1cccc(O)c1 (stereo not shown)", "> 4000 nM"),
    ("Cc1ccc(C)c(CN(CCC2CCCN2C)Cc2ccccc2)c1 (stereo not shown)", "> 4000 nM"),
    ("CN1CCC[C@H]1CCN(Cc1ccc(Cl)cc1)Cc1ccc2c(c1)Cc1ccccc1-2", "> 4000 nM"),
    ("COc1cc(CN(CC[C@@H]2CCCN2C)Cc2ccc(Cl)cc2)ccc1O", "> 4000 nM"),
    ("Cc1cc(CN(CC[C@@H]2CCCN2C)Cc2ccc(Cl)cc2)cc(C)c1O", "3070 nM"),
    ("CCc1ccc(CN(CCC2CCCN2C)Cc2ccccc2)cc1 (stereo not shown)", "> 4000 nM"),
    ("COc1cccc(CN(CCC2CCCN2C)Cc2ccccc2)c1 (stereo not shown)", "> 4000 nM"),
    ("Cc1cc(CN(CC[C@@H]2CCCN2C)Cc2cccc(O)c2)cc(C)c1O", "> 4000 nM"),
    ("CN1CCCC1CCN(Cc1ccccc1)Cc1cccc2ccccc12 (stereo not shown)", "> 4000 nM"),
    ("Cc1ccc(CN(CC[C@@H]2CCCN2C)Cc2ccccc2)cc1", "> 4000 nM"),
    ("CSc1ccc(CN(CC[C@@H]2CCCN2C)Cc2ccc(Cl)cc2)cc1", "> 4000 nM"),
    ("CCN1CCC[C@H]1CCN(Cc1ccc(C)cc1)Cc1ccc(C)cc1", "610 nM"),
    ("CN1CCC[C@H]1CCN(Cc1ccc(O)cc1)Cc1cccc(O)c1", "> 4000 nM"),
    ("CN1CCC[C@H]1CCN(Cc1cccc(O)c1)Cc1ccc2ccccc2c1", "825 nM"),
]
